The reported measurements were obtained from patent US8840866B2.

assay: Organ distribution in normal ICR mice after iv injection of radiolabeled tracer; format: in vivo; details: [125I]-labeled tracer, 2 hr
Property measured: Biodistribution: Kidney (% dose/g)
Write it as a number; the unit % dose/g goes unstated.

Worked examples follow.
Molecule: CNc1ccc(/C=C/c2cnc(OCCO)c(I)c2)cc1 [[^125I]16b]
Property measured: Biodistribution: Kidney
Numeric value: 1.53
--
Molecule: CN(C)c1ccc(/C=C/c2cnc(OCCOCCOCCF)c(I)c2)cc1 [[^125I]13a]
Property measured: Biodistribution: Kidney
Numeric value: 1.71
--
Molecule: CNc1ccc(/C=C/c2cnc(OCCOCCOCCF)c(I)c2)cc1 [[^125I]13b]
Property measured: Biodistribution: Kidney
Numeric value: 1.86

// query Give a short answer stating reported Biodistribution: Kidney for CN(C)c1ccc(/C=C/c2cnc(OCCO)c(I)c2)cc1 [[^125I]16a] .
// result 1.48

###

experiment: Organ distribution in normal ICR mice after iv injection of radiolabeled tracer; assay type: in vivo; conditions: [125I]-labeled tracer, 1 hr
Property measured: Biodistribution: Spleen
Reply with the number and its unit after it.

Worked examples follow.
Molecule: CN(C)c1ccc(/C=C/c2cnc(OCCOCCOCCF)c(I)c2)cc1 [[^125I]13a]
Result: 0.99 ± 0.47 % dose/g
--
Molecule: CN(C)c1ccc(/C=C/c2cnc(OCCO)c(I)c2)cc1 [[^125I]16a]
Result: 1.32 ± 0.10 % dose/g
--
Molecule: CNc1ccc(/C=C/c2cnc(OCCO)c(I)c2)cc1 [[^125I]16b]
Result: 0.87 ± 0.37 % dose/g

Kindly consider the entry below.
// query Give a short answer stating reported Biodistribution: Spleen for CNc1ccc(/C=C/c2cnc(OCCOCCOCCF)c(I)c2)cc1 [[^125I]13b] .
// result 1.75 ± 0.33 % dose/g

###

assay: Organ distribution in normal ICR mice after iv injection of radiolabeled tracer; type: in vivo; details: [125I]-labeled tracer, 30 min
Property measured: Biodistribution: Spleen (% dose/g)
Write it as a number; the unit % dose/g goes unstated.

Worked examples follow.
Compound: CNc1ccc(/C=C/c2cnc(OCCOCCOCCF)c(I)c2)cc1 [[^125I]13b]
Property measured: Biodistribution: Spleen
Unit text: % dose/g
Numeric value: 2.49

Compound: CNc1ccc(/C=C/c2cnc(OCCO)c(I)c2)cc1 [[^125I]16b]
Property measured: Biodistribution: Spleen
Unit text: % dose/g
Numeric value: 1.34

Compound: CN(C)c1ccc(/C=C/c2cnc(OCCOCCOCCF)c(I)c2)cc1 [[^125I]13a]
Property measured: Biodistribution: Spleen
Unit text: % dose/g
Numeric value: 1.42

Kindly consider the entry below.
// query Give a short answer stating reported Biodistribution: Spleen for CN(C)c1ccc(/C=C/c2cnc(OCCO)c(I)c2)cc1 [[^125I]16a] .
// result 1.94

###

assay: Organ distribution in normal ICR mice after iv injection of radiolabeled tracer; type: in vivo; conditions: [125I]-labeled tracer, 30 min
The entries below come with measured Biodistribution: Skin values attached.
Write it as a number; the unit % dose/g goes unstated.

Worked examples follow.
Compound: CN(C)c1ccc(/C=C/c2cnc(OCCOCCOCCF)c(I)c2)cc1 [[^125I]13a]
Numeric value: 1.47
--
Compound: CN(C)c1ccc(/C=C/c2cnc(OCCO)c(I)c2)cc1 [[^125I]16a]
Numeric value: 1.18

// query Give a short answer stating reported Biodistribution: Skin for CNc1ccc(/C=C/c2cnc(OCCOCCOCCF)c(I)c2)cc1 [[^125I]13b] .
// result 2.95

// query Give a short answer stating reported Biodistribution: Skin for CNc1ccc(/C=C/c2cnc(OCCO)c(I)c2)cc1 [[^125I]16b] .
// result 1.86

###

assay: Organ distribution in normal ICR mice after iv injection of radiolabeled tracer; assay type: in vivo; conditions: [125I]-labeled tracer, 30 min
Property measured: Biodistribution: Kidney (% dose/g)
Write it as a number; the unit % dose/g goes unstated.

Molecule: CN(C)c1ccc(/C=C/c2cnc(OCCOCCOCCF)c(I)c2)cc1 [[^125I]13a]
Unit text: % dose/g
Numeric value: 3.32
--
Molecule: CNc1ccc(/C=C/c2cnc(OCCO)c(I)c2)cc1 [[^125I]16b]
Unit text: % dose/g
Numeric value: 3.73
--
Molecule: CN(C)c1ccc(/C=C/c2cnc(OCCO)c(I)c2)cc1 [[^125I]16a]
Unit text: % dose/g
Numeric value: 4.19

Kindly consider the entry below.
// query Give a short answer stating reported Biodistribution: Kidney for CNc1ccc(/C=C/c2cnc(OCCOCCOCCF)c(I)c2)cc1 [[^125I]13b] .
// result 3.40

###

experiment: Organ distribution in normal ICR mice after iv injection of radiolabeled tracer; format: in vivo; details: [125I]-labeled tracer, 2 hr
Property measured: Biodistribution: Brain (% dose/g)
Write it as a number; the unit % dose/g goes unstated.

Molecule: CN(C)c1ccc(/C=C/c2cnc(OCCO)c(I)c2)cc1 [[^125I]16a]
Unit text: % dose/g
Numeric value: 0.46

// query Give a short answer stating reported Biodistribution: Brain for CNc1ccc(/C=C/c2cnc(OCCOCCOCCF)c(I)c2)cc1 [[^125I]13b] .
// result 0.26

// query Give a short answer stating reported Biodistribution: Brain for CNc1ccc(/C=C/c2cnc(OCCO)c(I)c2)cc1 [[^125I]16b] .
// result 0.15

// query Give a short answer stating reported Biodistribution: Brain for CN(C)c1ccc(/C=C/c2cnc(OCCOCCOCCF)c(I)c2)cc1 [[^125I]13a] .
// result 0.26

###

Test: Organ distribution in normal ICR mice after iv injection of radiolabeled tracer
Type: in vivo
Settings: [125I]-labeled tracer, 2 hr
Protocol: The mice (n=3 for each time point) were sacrificed by cervical dislocation at designated time-points post injection. The organs of interest were removed and weighed, and the radioactivity was counted with an automatic gamma counter. The percentage dose per organ was calculated by a comparison of the tissue counts to suitably diluted aliquots of the injected material. The total activity of the blood was calculated under the assumption that it is 7% of the total body weight. […]
Property measured: Biodistribution: Skin (% dose/g)
Write it as a number; the unit % dose/g goes unstated.

Worked examples follow.
Compound: CN(C)c1ccc(/C=C/c2cnc(OCCO)c(I)c2)cc1 [[^125I]16a]
Unit text: % dose/g
Numeric value: 0.40
--
Compound: CNc1ccc(/C=C/c2cnc(OCCO)c(I)c2)cc1 [[^125I]16b]
Unit text: % dose/g
Numeric value: 1.43
--
Compound: CNc1ccc(/C=C/c2cnc(OCCOCCOCCF)c(I)c2)cc1 [[^125I]13b]
Unit text: % dose/g
Numeric value: 1.32

Kindly consider the entry below.
// query Give a short answer stating reported Biodistribution: Skin for CN(C)c1ccc(/C=C/c2cnc(OCCOCCOCCF)c(I)c2)cc1 [[^125I]13a] .
// result 1.23

###

The entries below come with measured Biodistribution: Kidney values attached.
test: Organ distribution in normal ICR mice after iv injection of radiolabeled tracer; type: in vivo; settings: [125I]-labeled tracer, 1 hr
Write it as a number; the unit % dose/g goes unstated.

Worked examples follow.
Compound: CNc1ccc(/C=C/c2cnc(OCCOCCOCCF)c(I)c2)cc1 [[^125I]13b]
Numeric value: 2.81

Compound: CNc1ccc(/C=C/c2cnc(OCCO)c(I)c2)cc1 [[^125I]16b]
Numeric value: 2.16

Compound: CN(C)c1ccc(/C=C/c2cnc(OCCOCCOCCF)c(I)c2)cc1 [[^125I]13a]
Numeric value: 2.30

Kindly consider the entry below.
// query Give a short answer stating reported Biodistribution: Kidney for CN(C)c1ccc(/C=C/c2cnc(OCCO)c(I)c2)cc1 [[^125I]16a] .
// result 2.49

###

experiment: Organ distribution in normal ICR mice after iv injection of radiolabeled tracer; assay type: in vivo; settings: [125I]-labeled tracer, 2 hr
Property measured: Biodistribution: Blood (% dose/g)
Write it as a number; the unit % dose/g goes unstated.

Worked examples follow.
Compound: CNc1ccc(/C=C/c2cnc(OCCO)c(I)c2)cc1 [[^125I]16b]
Unit text: % dose/g
Numeric value: 1.96
//
Compound: CN(C)c1ccc(/C=C/c2cnc(OCCOCCOCCF)c(I)c2)cc1 [[^125I]13a]
Unit text: % dose/g
Numeric value: 1.45
//
Compound: CN(C)c1ccc(/C=C/c2cnc(OCCO)c(I)c2)cc1 [[^125I]16a]
Unit text: % dose/g
Numeric value: 1.01

Kindly consider the entry below.
// query Give a short answer stating reported Biodistribution: Blood for CNc1ccc(/C=C/c2cnc(OCCOCCOCCF)c(I)c2)cc1 [[^125I]13b] .
// result 2.21

###

assay: Organ distribution in normal ICR mice after iv injection of radiolabeled tracer; assay type: in vivo; settings: [125I]-labeled tracer, 30 min
The entries below come with measured Biodistribution: Liver values attached.
Write it as a number; the unit % dose/g goes unstated.

Compound: CNc1ccc(/C=C/c2cnc(OCCO)c(I)c2)cc1 [[^125I]16b]
Property measured: Biodistribution: Liver
Numeric value: 12.57
--
Compound: CN(C)c1ccc(/C=C/c2cnc(OCCO)c(I)c2)cc1 [[^125I]16a]
Property measured: Biodistribution: Liver
Numeric value: 12.38
--
Compound: CN(C)c1ccc(/C=C/c2cnc(OCCOCCOCCF)c(I)c2)cc1 [[^125I]13a]
Property measured: Biodistribution: Liver
Numeric value: 9.54

// query Give a short answer stating reported Biodistribution: Liver for CNc1ccc(/C=C/c2cnc(OCCOCCOCCF)c(I)c2)cc1 [[^125I]13b] .
// result 11.47
